Assay: Effect of fluorochemical lipophilicity on pharmaceutical solubility (Example 7)
Assay type: physicochemical
Details: organic solvent or mixture; in C8F17C6H13; read-out: Naphthalene
measurement label: solubility (mg/mL)
All answers are understood in mg/mL, so give the number only.

Kindly note the recorded solubility for c1ccc2ccccc2c1 , which is 23

###

Assay: Effect of fluorochemical lipophilicity on pharmaceutical solubility (Example 7)
Type: physicochemical
Conditions: c6f13c2h5, organic solvent or mixture
measurement label: solubility (µg/mL)
All answers are understood in µg/mL, so give the number only.

Kindly note the recorded solubility for CCCCCCCCCCCCCCCc1cccc(O)c1 , which is 700

###

Experiment: Solubility of prednisone in fluorocarbons (Example 5)
Type: physicochemical
Settings: n-c8f17br with 3% ethanol, organic solvent or mixture; in n-C8F17Br with 3% Ethyl Alcohol; read-out: mg/L of prednisone in fluorochemical matrix
Protocol: A prednisone containing perfluorochemical solution was prepared as follows: The column was a 25 cm amino column (Rainin), and the detection was carried out by a UV detector (Beckman System Gold) at the end of the column.
measurement label: solubility

Kindly note the recorded solubility for C[C@]12C=CC(=O)C=C1CC[C@@H]1[C@@H]2C(=O)C[C@@]2(C)[C@H]1CC[C@]2(O)C(=O)CO , which is < 1 mg/L

###

Experiment: Effect of fluorochemical lipophilicity on pharmaceutical solubility (Example 7)
Type: physicochemical
Details: c8f17c2h5, organic solvent or mixture
measurement label: solubility (µg/mL)
All answers are understood in µg/mL, so give the number only.

Kindly note the recorded solubility for CCCCCCCCCCCCCCCc1cccc(O)c1 , which is 400

###

Assay: Effect of fluorochemical lipophilicity on pharmaceutical solubility (Example 7)
Assay type: physicochemical
Settings: organic solvent or mixture; in C8F17C4H9; read-out: Naphthalene
measurement label: solubility (mg/mL)
All answers are understood in mg/mL, so give the number only.

Kindly note the recorded solubility for c1ccc2ccccc2c1 , which is 14

###

Test: Effect of fluorochemical lipophilicity on pharmaceutical solubility (Example 7)
Type: physicochemical
Settings: c6f13c6h13, organic solvent or mixture
measurement label: solubility (µg/mL)
All answers are understood in µg/mL, so give the number only.

Kindly note the recorded solubility for CCCCCCCCCCCCCCCc1cccc(O)c1 , which is 4100
